Target: T1, laminin-411 (human, UniProt Q16363 25-1823; P07942 22-1786; P11047 34-1609)
T1 construct: Full-length recombinant human laminin isoform (BioLamina); chains read from the isoform name
T1 sequence (Q16363 25-1823 limits assumed, chain 1 of 3): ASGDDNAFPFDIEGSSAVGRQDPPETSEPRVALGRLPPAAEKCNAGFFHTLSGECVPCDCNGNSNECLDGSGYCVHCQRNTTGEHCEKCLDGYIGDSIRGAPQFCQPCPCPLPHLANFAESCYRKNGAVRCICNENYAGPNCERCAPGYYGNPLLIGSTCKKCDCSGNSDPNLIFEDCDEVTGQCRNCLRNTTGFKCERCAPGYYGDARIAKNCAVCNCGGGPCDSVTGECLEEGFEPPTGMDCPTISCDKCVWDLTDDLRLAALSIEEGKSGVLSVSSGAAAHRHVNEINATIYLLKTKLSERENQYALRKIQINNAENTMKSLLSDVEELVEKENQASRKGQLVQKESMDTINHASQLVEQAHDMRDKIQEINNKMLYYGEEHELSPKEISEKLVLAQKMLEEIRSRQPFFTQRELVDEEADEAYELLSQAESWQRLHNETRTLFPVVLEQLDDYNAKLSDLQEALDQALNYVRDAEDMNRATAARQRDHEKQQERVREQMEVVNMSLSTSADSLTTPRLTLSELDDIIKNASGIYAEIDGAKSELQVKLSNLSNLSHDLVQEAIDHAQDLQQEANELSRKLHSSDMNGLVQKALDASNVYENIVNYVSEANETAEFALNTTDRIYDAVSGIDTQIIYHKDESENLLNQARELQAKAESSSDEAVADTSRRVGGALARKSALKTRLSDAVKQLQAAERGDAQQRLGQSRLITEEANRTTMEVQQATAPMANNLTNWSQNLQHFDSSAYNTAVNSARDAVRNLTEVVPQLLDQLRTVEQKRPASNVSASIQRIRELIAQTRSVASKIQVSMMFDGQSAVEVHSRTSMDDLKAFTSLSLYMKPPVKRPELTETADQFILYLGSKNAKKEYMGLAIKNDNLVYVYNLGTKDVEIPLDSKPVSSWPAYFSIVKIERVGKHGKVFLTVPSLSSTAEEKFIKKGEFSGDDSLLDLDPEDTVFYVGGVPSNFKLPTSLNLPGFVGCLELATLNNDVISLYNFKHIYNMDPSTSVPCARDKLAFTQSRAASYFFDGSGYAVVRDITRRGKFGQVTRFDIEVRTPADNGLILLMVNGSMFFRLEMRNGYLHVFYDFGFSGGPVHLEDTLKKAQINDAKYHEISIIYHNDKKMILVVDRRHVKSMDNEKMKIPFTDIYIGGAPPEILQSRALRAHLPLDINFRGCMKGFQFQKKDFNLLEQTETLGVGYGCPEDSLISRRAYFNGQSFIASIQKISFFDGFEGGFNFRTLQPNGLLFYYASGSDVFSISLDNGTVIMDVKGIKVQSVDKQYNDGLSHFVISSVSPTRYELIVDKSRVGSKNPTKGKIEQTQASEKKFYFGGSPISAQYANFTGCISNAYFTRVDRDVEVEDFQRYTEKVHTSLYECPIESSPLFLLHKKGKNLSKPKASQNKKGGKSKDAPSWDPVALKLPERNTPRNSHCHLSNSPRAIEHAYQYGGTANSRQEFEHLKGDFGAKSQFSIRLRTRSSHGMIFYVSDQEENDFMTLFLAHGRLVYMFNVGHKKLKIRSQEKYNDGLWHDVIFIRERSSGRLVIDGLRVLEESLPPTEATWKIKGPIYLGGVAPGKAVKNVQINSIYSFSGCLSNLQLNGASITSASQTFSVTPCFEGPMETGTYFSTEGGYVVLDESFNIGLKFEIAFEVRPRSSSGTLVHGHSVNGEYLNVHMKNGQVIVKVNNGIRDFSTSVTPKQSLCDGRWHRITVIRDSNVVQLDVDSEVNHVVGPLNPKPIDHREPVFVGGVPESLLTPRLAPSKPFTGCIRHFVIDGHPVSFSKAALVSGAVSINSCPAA
T1 sequence (P07942 22-1786 limits assumed, chain 2 of 3): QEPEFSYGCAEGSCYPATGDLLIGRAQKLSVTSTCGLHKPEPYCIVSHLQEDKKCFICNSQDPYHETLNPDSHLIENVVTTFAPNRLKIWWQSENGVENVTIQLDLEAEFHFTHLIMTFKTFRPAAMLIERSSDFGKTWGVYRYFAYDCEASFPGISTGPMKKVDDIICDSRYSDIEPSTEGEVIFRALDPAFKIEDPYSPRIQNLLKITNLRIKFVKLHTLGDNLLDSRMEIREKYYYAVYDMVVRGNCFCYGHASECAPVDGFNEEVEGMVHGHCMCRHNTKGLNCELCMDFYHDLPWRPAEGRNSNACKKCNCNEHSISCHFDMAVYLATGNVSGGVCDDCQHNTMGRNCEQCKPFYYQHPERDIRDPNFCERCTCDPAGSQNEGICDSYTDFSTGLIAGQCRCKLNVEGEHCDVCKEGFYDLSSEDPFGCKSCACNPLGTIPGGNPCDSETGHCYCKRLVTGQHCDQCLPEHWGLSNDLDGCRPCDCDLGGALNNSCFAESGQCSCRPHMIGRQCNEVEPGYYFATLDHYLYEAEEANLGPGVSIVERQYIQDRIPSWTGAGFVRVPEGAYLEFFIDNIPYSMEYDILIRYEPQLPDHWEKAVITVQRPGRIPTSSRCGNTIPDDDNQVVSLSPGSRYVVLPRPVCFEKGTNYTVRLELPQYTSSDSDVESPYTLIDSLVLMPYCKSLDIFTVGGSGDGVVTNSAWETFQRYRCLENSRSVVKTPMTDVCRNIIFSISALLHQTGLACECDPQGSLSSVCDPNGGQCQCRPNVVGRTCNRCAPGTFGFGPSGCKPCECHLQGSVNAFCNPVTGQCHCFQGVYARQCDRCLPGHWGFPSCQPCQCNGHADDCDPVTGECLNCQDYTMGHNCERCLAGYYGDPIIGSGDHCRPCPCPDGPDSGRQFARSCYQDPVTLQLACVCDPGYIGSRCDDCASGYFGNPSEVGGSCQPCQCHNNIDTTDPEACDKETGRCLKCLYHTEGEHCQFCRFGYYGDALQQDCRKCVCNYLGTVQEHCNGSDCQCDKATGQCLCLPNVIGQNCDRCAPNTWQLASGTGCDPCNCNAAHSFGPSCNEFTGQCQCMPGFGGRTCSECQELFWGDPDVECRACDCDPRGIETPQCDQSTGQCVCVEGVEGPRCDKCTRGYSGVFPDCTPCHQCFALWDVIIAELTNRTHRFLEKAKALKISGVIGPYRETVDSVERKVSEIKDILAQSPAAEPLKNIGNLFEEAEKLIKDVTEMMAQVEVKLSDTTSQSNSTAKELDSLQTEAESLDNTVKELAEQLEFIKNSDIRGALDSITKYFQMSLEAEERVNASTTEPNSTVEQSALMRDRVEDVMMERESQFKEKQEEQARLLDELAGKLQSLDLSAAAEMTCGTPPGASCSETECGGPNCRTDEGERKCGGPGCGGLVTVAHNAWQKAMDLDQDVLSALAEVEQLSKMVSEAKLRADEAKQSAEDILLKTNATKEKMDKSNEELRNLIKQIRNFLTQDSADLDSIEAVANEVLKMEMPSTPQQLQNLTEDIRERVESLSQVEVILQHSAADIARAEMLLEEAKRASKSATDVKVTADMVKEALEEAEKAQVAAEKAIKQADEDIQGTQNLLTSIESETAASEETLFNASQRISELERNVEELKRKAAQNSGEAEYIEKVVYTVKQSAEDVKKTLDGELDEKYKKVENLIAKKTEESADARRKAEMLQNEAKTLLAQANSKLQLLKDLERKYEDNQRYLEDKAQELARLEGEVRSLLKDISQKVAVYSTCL
T1 sequence (P11047 34-1609 limits assumed, chain 3 of 3): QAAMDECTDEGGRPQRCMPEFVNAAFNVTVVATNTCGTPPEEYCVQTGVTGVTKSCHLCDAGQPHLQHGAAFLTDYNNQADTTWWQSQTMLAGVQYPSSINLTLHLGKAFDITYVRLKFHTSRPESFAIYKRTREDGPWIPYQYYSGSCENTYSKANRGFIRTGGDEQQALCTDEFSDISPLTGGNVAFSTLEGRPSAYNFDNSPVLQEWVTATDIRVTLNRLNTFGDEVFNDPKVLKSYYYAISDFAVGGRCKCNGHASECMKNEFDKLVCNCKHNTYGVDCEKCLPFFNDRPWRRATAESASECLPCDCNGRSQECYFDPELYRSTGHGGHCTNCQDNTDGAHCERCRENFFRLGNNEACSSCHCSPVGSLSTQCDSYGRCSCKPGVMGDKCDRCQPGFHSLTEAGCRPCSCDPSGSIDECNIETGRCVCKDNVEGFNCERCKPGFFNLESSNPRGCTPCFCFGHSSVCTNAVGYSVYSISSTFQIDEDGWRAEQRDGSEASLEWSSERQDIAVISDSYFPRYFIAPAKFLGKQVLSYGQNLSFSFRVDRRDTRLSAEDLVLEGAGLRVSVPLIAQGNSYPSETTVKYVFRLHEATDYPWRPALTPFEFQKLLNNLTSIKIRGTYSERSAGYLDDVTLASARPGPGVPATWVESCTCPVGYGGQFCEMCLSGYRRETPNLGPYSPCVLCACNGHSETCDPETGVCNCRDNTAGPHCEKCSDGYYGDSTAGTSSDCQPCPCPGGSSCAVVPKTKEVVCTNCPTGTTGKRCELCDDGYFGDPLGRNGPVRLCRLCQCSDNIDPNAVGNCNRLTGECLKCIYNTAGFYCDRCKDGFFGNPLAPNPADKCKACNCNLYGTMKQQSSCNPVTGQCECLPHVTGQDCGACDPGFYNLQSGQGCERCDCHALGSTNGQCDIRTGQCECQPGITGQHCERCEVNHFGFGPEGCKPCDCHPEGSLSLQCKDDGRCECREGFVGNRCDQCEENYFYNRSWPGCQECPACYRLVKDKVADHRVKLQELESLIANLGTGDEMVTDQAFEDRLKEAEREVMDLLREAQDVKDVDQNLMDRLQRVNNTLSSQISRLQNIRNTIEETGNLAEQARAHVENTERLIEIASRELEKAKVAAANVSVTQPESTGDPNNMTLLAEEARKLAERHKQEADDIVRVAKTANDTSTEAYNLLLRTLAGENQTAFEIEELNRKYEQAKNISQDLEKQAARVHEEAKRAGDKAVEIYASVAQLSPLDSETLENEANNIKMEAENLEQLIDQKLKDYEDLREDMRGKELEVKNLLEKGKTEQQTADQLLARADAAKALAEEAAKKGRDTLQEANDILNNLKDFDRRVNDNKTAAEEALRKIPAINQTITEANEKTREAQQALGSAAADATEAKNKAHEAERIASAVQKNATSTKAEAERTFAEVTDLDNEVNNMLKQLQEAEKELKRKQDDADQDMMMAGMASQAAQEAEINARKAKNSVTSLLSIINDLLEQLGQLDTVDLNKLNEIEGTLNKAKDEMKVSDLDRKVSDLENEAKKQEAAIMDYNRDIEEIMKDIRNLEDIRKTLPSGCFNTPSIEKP
Assay: ELISA, GF coated, laminin 10 nM
Protocol: ELISA tests were performed as previously reported. In brief, ELISA plates (med-binding, Greiner Bio-One) were coated with 50 nM GFs at 37° C. for more than 2 hrs. […] Bound laminin was detected with rabbit anti-human laminin γ1 chain antibody (1:1000 dilution, Assay biotech) or rabbit anti-human laminin α3 chain antibody (1:1000 dilution, Assay biotech). […] Subsequently, the absorbance at 450 nm was measured with a reference of 570 nm.

{"BINDER": "platelet-derived growth factor (PDGF)-BB (ligand, human, UniProt P01127 82-190, looked up, mature; Purchased in mature form) SLGSLTIAEPAMIAECKTRTEVFEISRRLIDRTNANFLVWPPCVEVQRCSGCCNNRNVQCRPTQVQLRPVQVRKIEIVRKKPIFKKATVTLEDHLACKCETVAAARPVT", "binding result": "binds"}
{"BINDER": "fibroblast growth factor (FGF)-7 (ligand, UniProt P21781 32-194, looked up, mature; Purchased in mature form) CNDMTPEQMATNVNCSSPERHTRSYDYMEGGDIRVRRLFCRTQWYLRIDKRGKVKGTQEMKNNYNIMEIRTVAVGIVAIKGVESEFYLAMNKEGKLYAKKECNEDCNFKELILENHYNTYASAKWTHNGGEMFVALNQKGIPVRGKKTKKEQKTAHFLPMAIT", "binding result": "binds"}

All values here come from patent US20240092867A1.
